This collection of values is drawn from PubChem BioAssay (NCI).

Tested on: ACHN renal
Protocol description: NCI-60 one-dose screen, 48 h
Experimental parameters: 10 µM unless noted
Compounds without any hit were thinned out: in the full panel of roughly 83,000, 20% have a hit. The source made the active and inactive calls. Rule for the calls: active = growth percent below 10; inactive = the rest.
Classes to choose from: active, inactive

# Compound, Cat
data = [
    ("Cc1cc(Cl)ccc1Nc1nc(C(F)(F)F)ccc1C(=O)N/N=C/c1ccc(N(C)C)cc1", "inactive"),
    ("O=c1c2cc(F)ccc2sc2c(Nc3cccnc3)nc3ccccc3c12", "inactive"),
    ("Cc1ccc(C(=O)COc2cccc(/C=C3\\Oc4ccccc4C3=O)c2)cc1", "inactive"),
]

stdin: State the result this test recorded for O=C1c2cccc(NCCN=Cc3cc([N+](=O)[O-])ccc3O)c2C(=O)c2c(NCCN=Cc3cc([N+](=O)[O-])ccc3O)cccc21 .
stdout: inactive

* * *

System: SF-539 CNS
Protocol description: NCI-60 one-dose screen, 48 h (100 = growth as untreated, 0 = no growth, -100 = all killed)
Experimental parameters: 10 µM unless noted
This is part of a sample that, as a whole, favours compounds with a hit. Of some 83,000 tested, about 20% had one in any assay.
# growth per record follows
Numeric only. Scale: %

Check out these entries, answers already filled in.
# Compound, System, Unit text, growth
rows = [
    ("O=c1cc(-c2ccc(Cl)cc2)[nH]c2ccccc12", "SF-539 CNS", "%", 94.5),
    ("N/C(=N\\c1nc2ccccc2s1)NC(=O)Nc1cccc(Cl)c1", "SF-539 CNS", "%", 2.83),
    ("CCCCNC(=O)Oc1ccc2c(=O)c3sc4c(=O)c5ccccc5c(=O)c4c3c(=O)c2c1", "SF-539 CNS", "%", -96.6),
    ("N#Cc1c(N2CCNCC2)nc2sc3cc(Cl)c(Cl)cc3n2c1=N", "SF-539 CNS", "%", 86.1),
]

Please turn your attention to the following entry.
stdin: May I ask what growth has been recorded for Cc1nn(-c2ccccc2)c2nc3c(c(-c4ccc(Cl)cc4)c12)CNC1(CCSCC1)N3 ?
stdout: 110

* * *

Test system: HOP-92 NSCLC
Protocol description: NCI-60 one-dose screen, 48 h
Experimental parameters: 10 µM unless noted
Compounds without any hit were thinned out: in the full panel of roughly 83,000, 20% have a hit. Active and inactive are the calls of the source. Rule for the calls: active = growth percent below 10; inactive = the rest.
Classes to choose from: Y for active, N for inactive

# Molecule, Cat
measured = [
    ("COc1cccc(-c2nn(-c3ccccc3)cc2-c2ccnc(NCCNC(=O)Nc3cccc(C(F)(F)F)c3)c2)c1", "Y"),
    ("CCN(CC)c1nc(SCC(=O)Nc2nc3ccc(C)cc3s2)nc(-c2ccccc2)c1C#N", "N"),
    ("COc1cc(/C=C2\\C(=O)ON=C2C)cc(OC)c1OC", "N"),
    ("CCN(CC)CCCCCCNc1cc(OC)c(Cl)c2cccnc12", "N"),
    ("CCCCCCCOc1c(OC)cc(C2CC(=O)Nc3c2c(C)nn3-c2nc3ccccc3[nH]2)cc1OC (stereo not given)", "Y"),
    ("CCCCCCCCCCN(CCCCCCCCCC)CC(=O)c1ccc2cc(Br)c3ccccc3c2c1", "Y"),
]

stdin: State the result this test recorded for COc1ccc(C(=O)Nn2c(NCC(=O)N3c4ccccc4Sc4ccccc43)nnc2-c2ccc(O)cc2)cc1 .
stdout: N

stdin: State the result this test recorded for FC(F)(F)c1cc(Nc2ccc3cc(OCCCN4CCOCC4)ccc3n2)ccc1Cl .
stdout: N

stdin: State the result this test recorded for CC(=O)[C@@H]1CC[C@]2(COS(=O)(=O)c3ccc(C)cc3)CC[C@]3(C)[C@H](CC[C@@H]4[C@@]5(C)CCCNC(C)(C)[C@@H]5CC[C@]43C)[C@@H]12 .
stdout: N
